- Test system: HCT-116 colon
- assayNotes: NCI-60 one-dose screen, 48 h
- experimentalParameters: 10 µM unless noted
About 83,000 compounds went through this panel and 20% of them were active in at least one assay; those are over-represented in the sample as a whole. The source made the active and inactive calls. The calls were made as follows: active = growth percent below 10; inactive = the rest.
Classes used: yes (1) (active), no (0) (inactive)

[[record]]
compound = "O=C(CSc1nnc(-c2ccc3nc(-c4ccc(Cl)cc4)[nH]c3c2)o1)Nc1ccc(C(=O)/C=C/c2ccc(Cl)cc2)cc1"
targetortestsystem = "HCT-116 colon"
classassignment = "no (0)"

[[record]]
compound = "Cc1nc2cnc(N)c(C#Cc3cncc(C(=O)Nc4ccc(Cl)c(C(F)(F)F)c4)c3)c2nc1C"
targetortestsystem = "HCT-116 colon"
classassignment = "no (0)"

[[record]]
compound = "Nc1c(C(=O)Nc2ccc(C(F)(F)F)cc2)sc2nc(-c3cnccn3)cc(-c3cccs3)c12"
targetortestsystem = "HCT-116 colon"
classassignment = "yes (1)"

[[record]]
compound = "COC(=O)C(C)NS(=O)(=O)/N=C1\\NC(=O)NC1=C(Cl)Cl (centres undefined)"
targetortestsystem = "HCT-116 colon"
classassignment = "no (0)"

[[record]]
compound = "C=CCn1c(SCC(=O)c2ccccc2)nnc1-c1c[nH]c2ccccc12"
targetortestsystem = "HCT-116 colon"
classassignment = "no (0)"

[[record]]
compound = "Cc1ccc2c(n1)C(=O)C(Cl)=C(Nc1cccc(C(C)C)c1)C2=O"
targetortestsystem = "HCT-116 colon"
classassignment = "no (0)"

[[record]]
compound = "NS(=O)(=O)c1ccc(Nc2nc(Nc3ccccc3)nc(-n3nc(-c4ccccc4)cc3-c3ccccc3)n2)cc1"
targetortestsystem = "HCT-116 colon"
classassignment = "no (0)"

[[record]]
compound = "COc1ccc(CNS(=O)(=O)/N=C2\\NC(=O)NC2=C(Cl)Cl)cc1"
targetortestsystem = "HCT-116 colon"
classassignment = "yes (1)"

[[record]]
compound = "O=C(N/N=C/c1ccc([N+](=O)[O-])o1)c1[nH]c2ccc(Br)cc2c1-c1ccccc1"
targetortestsystem = "HCT-116 colon"
classassignment = "yes (1)"

